tested on: Plasmodium falciparum; assay: Antiplasmodial activity against chloroquine-susceptible Plasmodium falciparum PA infected in human erythrocytes assessed as inhibition of [3H]hypoxanthine uptake after 48 hrs; format: functional, organism-based
Entries and their pIC50 values follow.
Give only the number. pIC50 is defined as minus log10 of concentration in molar units.

// query Please give the measured pIC50 for this molecule: Clc1ccc2c(NCCNC(CCN3CCCCC3)c3ccccc3)ccnc2c1 (stereo not given)
// result 7.39

// query Please give the measured pIC50 for this molecule: C=C[C@H]1CN2CC[C@H]1C[C@H]2[C@H](O)c1ccnc2ccc(OC)cc12 [QUININE]
// result 6.20

// query Please give the measured pIC50 for this molecule: CCNCc1cc(Nc2ccnc3cc(Cl)ccc23)ccc1O [DESETHYL AMODIAQUINE]
// result 7.14

// query Please give the measured pIC50 for this molecule: CN(C)CCC(NCCNc1ccnc2cc(Cl)ccc12)c1ccccc1 (stereo not given)
// result 6.79

// query Please give the measured pIC50 for this molecule: `CC(C)NCCNc1ccnc2cc(Cl)ccc12`
// result 7.19

###

system: Nucleic Acid; test: Binding affinity to polydAdT DNA containing 100% AT assessed as middle of the integrated surface melting temperature at 1 uM by spectrophotometry analysis; type: nucleic-acid assay
Entries and their Tm values follow.
The response must be a number in °C with no trailing unit.

* CN(C)CCC(NCCNc1ccnc2cc(Cl)ccc12)c1ccccc1 (centres undefined) | 47.1
* CCN(CC)CCCC(C)Nc1ccnc2cc(Cl)ccc12 (centres undefined) | 46.6

// query Please give the measured Tm for this molecule: `CC(C)NCCNc1ccnc2cc(Cl)ccc12`
// result 46.5

// query Please give the measured Tm for this molecule: Clc1ccc2c(NCCNC(CCN3CCCCC3)c3ccccc3)ccnc2c1 (centres undefined)
// result 46.4

###

system: Nucleic Acid; test: Binding affinity to pUC18 DNA containing 50% AT assessed as maximum melting temperature at 1 uM by spectrophotometry analysis; assay type: nucleic-acid assay
Entries and their Tm values follow.
The response must be a number in °C with no trailing unit.

- CN(C)CCC(NCCNc1ccnc2cc(Cl)ccc12)c1ccccc1 (centres undefined): 74.4

// query Please give the measured Tm for this compound: CCN(CC)CCCC(C)Nc1ccnc2cc(Cl)ccc12 (centres undefined) [CHLOROQUINE]
// result 73.2

// query Please give the measured Tm for this compound: `CC(C)NCCNc1ccnc2cc(Cl)ccc12`
// result 73

// query Please give the measured Tm for this compound: Clc1ccc2c(NCCNC(CCN3CCCCC3)c3ccccc3)ccnc2c1 (centres undefined)
// result 73

###

Entries and their Kd values follow.
molecular target: Nucleic Acid; assay: Binding affinity to pUC18 DNA at pH 7.5 by spectrofluorimetry analysis; assay type: nucleic-acid assay

Examples with their reported Kd follow.
- CN(C)CCC(NCCNc1ccnc2cc(Cl)ccc12)c1ccccc1 (centres undefined): 8 µM
- CC(C)NCCNc1ccnc2cc(Cl)ccc12: 8 µM
- CCN(CC)CCCC(C)Nc1ccnc2cc(Cl)ccc12 (centres undefined): 9 µM

Then this molecule:
// query Please give the measured Kd for this molecule: Clc1ccc2c(NCCNC(CCN3CCCCC3)c3ccccc3)ccnc2c1 (centres undefined)
// result 4 µM

###

system: Plasmodium falciparum; test: Antiplasmodial activity against chloroquine-susceptible Plasmodium falciparum FCM29 infected in human erythrocytes assessed as inhibition of [3H]hypoxanthine uptake after 48 hrs; assay type: functional, organism-based
readout kind: pIC50
Give only the number. pIC50 is defined as minus log10 of concentration in molar units.

• CCNCc1cc(Nc2ccnc3cc(Cl)ccc23)ccc1O [DESETHYL AMODIAQUINE] = 6.50

// query Please give the measured pIC50 for this molecule: `CC(C)NCCNc1ccnc2cc(Cl)ccc12`
// result 6.62

// query Please give the measured pIC50 for this molecule: Clc1ccc2c(NCCNC(CCN3CCCCC3)c3ccccc3)ccnc2c1 (centres undefined)
// result 6.87

// query Please give the measured pIC50 for this molecule: CN(C)CCC(NCCNc1ccnc2cc(Cl)ccc12)c1ccccc1 (centres undefined)
// result 6.61
